Test: Half life in human liver microsomes
Details: liver microsomes
attribute_measured: half-life (min)

- smiles_input: "CNC(=O)Cn1cc(CN2CCN(c3cc(C(=O)Nc4ccc5c(c4)-c4c(c(C(N)=O)nn4-c4ccc(F)cc4)CC5)c(Cl)cn3)CC2)cn1"
  half-life [min]: 13
- smiles_input: "CN(C)C(=O)Cn1cc(CN2CCN(c3cc(C(=O)Nc4ccc5c(c4)-c4c(c(C(N)=O)nn4-c4ccc(F)cc4)CC5)c(Cl)cn3)CC2)cn1"
  half-life [min]: 8
- smiles_input: "CSCCNC(=O)Cn1cc(CN2CCN(c3cc(C(=O)Nc4ccc5c(c4)-c4c(c(C(N)=O)nn4-c4ccc(F)cc4)CC5)c(Cl)cn3)CC2)cn1"
  half-life [min]: 3
- smiles_input: "CCOC(=O)CCn1cc(CN2CCN(c3cc(C(=O)Nc4ccc5c(c4)-c4c(c(C(N)=O)nn4-c4ccc(F)cc4)CC5)c(Cl)cn3)CC2)cn1"
  half-life [min]: 3

I. Cn1cc(CN2CCN(c3cc(C(=O)Nc4ccc5c(c4)-c4c(c(C(N)=O)nn4-c4ccc(F)cc4)CC5)c(Cl)cn3)CC2)cn1
II. COCCNC(=O)Cn1cc(CN2CCN(c3cc(C(=O)Nc4ccc5c(c4)-c4c(c(C(N)=O)nn4-c4ccc(F)cc4)CC5)c(Cl)cn3)CC2)cn1
III. NC(=O)Cn1cc(CN2CCN(c3cc(C(=O)Nc4ccc5c(c4)-c4c(c(C(N)=O)nn4-c4ccc(F)cc4)CC5)c(Cl)cn3)CC2)cn1
[Q] Rank the 3 compounds: largest half-life first, smallest last. // rank by listing labels in the order requested
[A] III, I, II

###

Target: Inhibitor of nuclear factor kappa-B kinase subunit beta (Homo sapiens)
Sequence (O14920 whole entry): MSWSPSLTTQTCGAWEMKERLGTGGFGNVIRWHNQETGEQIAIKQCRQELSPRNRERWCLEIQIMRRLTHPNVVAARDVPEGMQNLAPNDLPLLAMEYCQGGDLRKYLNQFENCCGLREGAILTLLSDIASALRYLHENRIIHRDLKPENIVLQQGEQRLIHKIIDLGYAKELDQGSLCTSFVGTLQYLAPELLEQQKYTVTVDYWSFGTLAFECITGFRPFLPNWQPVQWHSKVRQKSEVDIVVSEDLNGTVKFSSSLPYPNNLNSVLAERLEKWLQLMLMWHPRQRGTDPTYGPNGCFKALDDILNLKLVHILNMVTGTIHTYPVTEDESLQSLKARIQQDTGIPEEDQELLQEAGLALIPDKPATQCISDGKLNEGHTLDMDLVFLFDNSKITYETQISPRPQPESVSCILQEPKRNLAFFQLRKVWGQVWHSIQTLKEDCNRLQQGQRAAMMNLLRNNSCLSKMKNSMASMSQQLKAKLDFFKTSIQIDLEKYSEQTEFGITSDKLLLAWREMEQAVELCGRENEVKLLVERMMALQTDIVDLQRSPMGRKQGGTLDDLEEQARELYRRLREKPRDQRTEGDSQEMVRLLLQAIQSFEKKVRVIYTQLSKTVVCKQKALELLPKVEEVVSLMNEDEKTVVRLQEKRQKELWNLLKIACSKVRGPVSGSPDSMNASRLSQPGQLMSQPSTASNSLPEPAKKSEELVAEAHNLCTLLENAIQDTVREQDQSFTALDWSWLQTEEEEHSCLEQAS
Experiment: Inhibition of human recombinant IKK2
attribute_measured: IC50 (nM)

Guide cases for IC50, answers given:
- compound: "CSCCNC(=O)Cn1cc(CN2CCN(c3cc(C(=O)Nc4ccc5c(c4)-c4c(c(C(N)=O)nn4-c4ccc(F)cc4)CC5)c(Cl)cn3)CC2)cn1"
  IC50 / nM: 2.5
- compound: "NC(=O)c1nn(-c2ccc(F)cc2)c2c1CCc1ccc(NC(=O)c3cc(N4CCC(O)CC4)ncc3Cl)cc1-2"
  IC50 / nM: 0.6

1. CNC(=O)Cn1cc(CN2CCN(c3cc(C(=O)Nc4ccc5c(c4)-c4c(c(C(N)=O)nn4-c4ccc(F)cc4)CC5)c(Cl)cn3)CC2)cn1
2. NC(=O)c1nn(-c2ccc(F)cc2)c2c1CCc1ccc(NC(=O)c3cc(N4CCN(Cc5cnn(CC(=O)N(CCO)CCO)c5)CC4)ncc3Cl)cc1-2
[Q] Which value of IC50 is smaller, the one for 1 or the one for 2 ? Indicate your choice by writing its label.
[A] 1

###

Target: Inhibitor of nuclear factor kappa-B kinase subunit beta (Homo sapiens)
Assay: Inhibition of human recombinant IKK2
pIC50: −log10 of the molar value.
attribute_measured: pIC50

- smiles_input: "NC(=O)c1nn(-c2ccc(F)cc2)c2c1CCc1ccc(NC(=O)c3cc(N4CCN(Cc5cn[nH]c5)CC4)ncc3Cl)cc1-2"
  target_or_system: "Inhibitor of nuclear factor kappa-B kinase subunit beta (Homo sapiens)"
  attribute_measured: "pIC50"
  measured_value: 8.72
- smiles_input: "CN(C)CCCNC(=O)Cn1cc(CN2CCN(c3cc(C(=O)Nc4ccc5c(c4)-c4c(c(C(N)=O)nn4-c4ccc(F)cc4)CC5)c(Cl)cn3)CC2)cn1"
  target_or_system: "Inhibitor of nuclear factor kappa-B kinase subunit beta (Homo sapiens)"
  attribute_measured: "pIC50"
  measured_value: 8.48
- smiles_input: "CCOC(=O)CCn1cc(CN2CCN(c3cc(C(=O)Nc4ccc5c(c4)-c4c(c(C(N)=O)nn4-c4ccc(F)cc4)CC5)c(Cl)cn3)CC2)cn1"
  target_or_system: "Inhibitor of nuclear factor kappa-B kinase subunit beta (Homo sapiens)"
  attribute_measured: "pIC50"
  measured_value: 8.33
- smiles_input: "Cc1c(CN2CCN(c3cc(C(=O)Nc4ccc5c(c4)-c4c(c(C(N)=O)nn4-c4ccc(F)cc4)CC5)c(Cl)cn3)CC2)cnn1C"
  target_or_system: "Inhibitor of nuclear factor kappa-B kinase subunit beta (Homo sapiens)"
  attribute_measured: "pIC50"
  measured_value: 8.55
- smiles_input: "COCCNc1cc(C(=O)Nc2ccc3c(c2)-c2c(c(C(N)=O)nn2-c2ccc(F)cc2)CC3)c(Cl)cn1"
  target_or_system: "Inhibitor of nuclear factor kappa-B kinase subunit beta (Homo sapiens)"
  attribute_measured: "pIC50"
  measured_value: 9.22
- smiles_input: "Cn1cc(CN2CCN(c3cc(C(=O)Nc4ccc5c(c4)-c4c(c(C(N)=O)nn4-c4ccc(F)cc4)CC5)c(Cl)cn3)CC2)cn1"
  target_or_system: "Inhibitor of nuclear factor kappa-B kinase subunit beta (Homo sapiens)"
  attribute_measured: "pIC50"
  measured_value: 8.52
- smiles_input: "CCOC(=O)Cn1cc(CN2CCN(c3cc(C(=O)Nc4ccc5c(c4)-c4c(c(C(N)=O)nn4-c4ccc(F)cc4)CC5)c(Cl)cn3)CC2)cn1"
  target_or_system: "Inhibitor of nuclear factor kappa-B kinase subunit beta (Homo sapiens)"
  attribute_measured: "pIC50"
  measured_value: 9.00
- smiles_input: "COCCOCCCn1cc(CN2CCN(c3cc(C(=O)Nc4ccc5c(c4)-c4c(c(C(N)=O)nn4-c4ccc(F)cc4)CC5)c(Cl)cn3)CC2)cn1"
  target_or_system: "Inhibitor of nuclear factor kappa-B kinase subunit beta (Homo sapiens)"
  attribute_measured: "pIC50"
  measured_value: 8.18

1. CN1CCN(c2cc(C(=O)Nc3ccc4c(c3)-c3c(c(C(N)=O)nn3-c3cccc(O)c3)CC4)c(Cl)cn2)CC1
2. NC(=O)c1nn(-c2ccc(F)cc2)c2c1CCc1ccc(NC(=O)c3cc(N4CCN(Cc5cnn(CC(=O)O)c5)CC4)ncc3Cl)cc1-2
3. COCCCn1cc(CN2CCN(c3cc(C(=O)Nc4ccc5c(c4)-c4c(c(C(N)=O)nn4-c4ccc(F)cc4)CC5)c(Cl)cn3)CC2)cn1
[Q] Rank items: key pIC50, increasing. // rank by listing labels in the order requested
[A] 3, 1, 2
